All figures here come from paper PMC11590026.

Tested on: B. subtilis
Assay: MIC/MBC assay, twofold serial dilution
Format: cell-based, Bacillus subtilis
Conditions: Bacillus subtilis, read-out: MIC
Hi there, I'd appreciate the recorded MIC for every entry that follows.

QUERY: Param request: MIC | system B. subtilis | item O=C1Nc2ccc(Cl)cc2/C1=N/NC(=O)c1cc(Cc2ccc(O)c(C(=O)N/N=C3\C(=O)Nc4ccc(Cl)cc43)c2)ccc1O [Compound 6h]
RESULT: 0.024 µM

QUERY: Recall the reported MIC of O=C(O)c1cn(C2CC2)c2cc(N3CCNCC3)c(F)cc2c1=O [Ciprofloxacin, reference compound] when tested on B. subtilis.
RESULT: 0.01 µM

QUERY: Give MIC for this entry on B. subtilis: Cc1ccc2c(c1)/C(=N/NC(=O)c1cc(Cc3ccc(O)c(C(=O)N/N=C4\C(=O)Nc5ccc(C)cc54)c3)ccc1O)C(=O)N2 [Compound 6j]
RESULT: 0.031 µM

====

What MIC was measured for each of the following?
Tested on: E. coli
Experiment: MIC/MBC assay, twofold serial dilution
Type: cell-based, Escherichia coli
Conditions: Escherichia coli, read-out: MIC
Just so you know, I need the unit written after the number.

QUERY: Return MIC for the following molecule: `O=C1Nc2ccc([N+](=O)[O-])cc2/C1=N/NC(=O)c1cc(Cc2ccc(O)c(C(=O)N/N=C3\C(=O)Nc4ccc([N+](=O)[O-])cc43)c2)ccc1O`
RESULT: 0.057 µM

QUERY: Supply measured MIC of `O=C1Nc2ccc(Cl)cc2/C1=N/NC(=O)c1cc(Cc2ccc(O)c(C(=O)N/N=C3\C(=O)Nc4ccc(Cl)cc43)c2)ccc1O` in your reply.
RESULT: 0.054 µM

QUERY: For the molecule `COc1ccc2c(c1)/C(=N/NC(=O)c1cc(Cc3cc(Cl)c(O)c(C(=O)N/N=C4\C(=O)Nc5ccc(OC)cc54)c3)cc(Cl)c1O)C(=O)N2` , give its reported MIC.
RESULT: 0.069 µM

QUERY: // Input: `O=C1Nc2ccc(Br)cc2/C1=N/NC(=O)c1cc(Cc2cc(Cl)c(O)c(C(=O)N/N=C3\C(=O)Nc4ccc(Br)cc43)c2)cc(Cl)c1O` . Output its MIC only.
RESULT: 0.066 µM

QUERY: Please report MIC for the following molecule: O=C(O)c1cn(C2CC2)c2cc(N3CCNCC3)c(F)cc2c1=O [Ciprofloxacin, reference compound]
RESULT: 0.06 µM

QUERY: // fetch MIC given entry `Cc1ccc2c(c1)/C(=N/NC(=O)c1cc(Cc3ccc(O)c(C(=O)N/N=C4\C(=O)Nc5ccc(C)cc54)c3)ccc1O)C(=O)N2`
RESULT: 0.062 µM

====

Kindly state MIC for each of the entries shown.
Tested on: P. aeruginosa (ATCC BAA-2111)
Assay: Antibacterial assay against multi-drug resistant strains (MIC/MBC)
Type: cell-based, Pseudomonas aeruginosa
Details: Pseudomonas aeruginosa, ATCCBAA2111, read-out: MIC
Write down the numeric answer in µM and omit the unit.

QUERY: Give MIC; test system P. aeruginosa (ATCC BAA-2111); molecule `O=C1Nc2ccc([N+](=O)[O-])cc2/C1=N/NC(=O)c1cc(Cc2ccc(O)c(C(=O)N/N=C3\C(=O)Nc4ccc([N+](=O)[O-])cc43)c2)ccc1O`
RESULT: 4.5

QUERY: Report MIC from P. aeruginosa (ATCC BAA-2111) testing of `COc1ccc2c(c1)/C(=N/NC(=O)c1cc(Cc3cc(Cl)c(O)c(C(=O)N/N=C4\C(=O)Nc5ccc(OC)cc54)c3)cc(Cl)c1O)C(=O)N2`
RESULT: 7.15

QUERY: # return MIC of `O=C1Nc2ccc(Br)cc2/C1=N/NC(=O)c1cc(Cc2cc(Cl)c(O)c(C(=O)N/N=C3\C(=O)Nc4ccc(Br)cc43)c2)cc(Cl)c1O` (system: P. aeruginosa (ATCC BAA-2111))
RESULT: 6.85
